- System: K24384-001-R-PDC complex spheroid growth;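 note: percent of DMSO vehicle-treated spheroid viability set as 100%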
- EXPERIMENT NOTES: Anticancer human tumor K24384-001-R-PDC patient-derived pancreatic adenocarcinoma cell line growth inhibition [AhR]
- CONDITIONS USED: second compound 0.316 µM; first compound 0.1 µM; stronger effect = lower value
hey, just use 1 if measured viability, T/C is less than 90%, otherwise -1

Here's an entry: COc1cccc2c1C(=O)c1c(O)c3c(c(O)c1C2=O)CC(O)(C(=O)CO)CC3OC1CC(N)C(O)C(C)O1 (stereo unspecified) + CC(CO)NC(=O)c1cc(-c2ccc(Cl)cc2)nn(-c2cnn(C)c2)c1=O . Is its viability, T/C below 90%?
1

Field: below-cutoff. Rule: recorded viability, T/C strictly less than 90%. Subject: CC(C)c1c(-c2ccccc2)nc2c(C#N)c[nH]n2c1=O + CC(CO)NC(=O)c1cc(-c2ccc(Cl)cc2)nn(-c2cnn(C)c2)c1=O
-1

Hi there! Is viability, T/C for CC(C)c1c(-c2ccccc2)nc2c(C#N)c[nH]n2c1=O + Cc1ccccc1N=Nc1ccc(NC(=O)c2ccnn2C)c(C)c1 below 90%, do you know?
-1

Given Nc1ncn(C2CC(O)C(CO)O2)c(=O)n1 (stereo unspecified) + CC(CO)NC(=O)c1cc(-c2ccc(Cl)cc2)nn(-c2cnn(C)c2)c1=O , is recorded viability, T/C strictly lower than 90%?
1

Please state whether viability, T/C is below 90% for CC(C)c1c(-c2ccccc2)nc2c(C#N)c[nH]n2c1=O + Cc1cncc(-c2nc(NCCc3c[nH]c4ccccc34)c3ncn(C(C)C)c3n2)c1
-1
